target: RAR-α (Homo sapiens, UniProt P10276); experiment: Cotransfection assay in CV-1 cells, RAR-alpha; format: cell-based; parameters: expressed in transfected cells; host or cells: CV-1 (monkey kidney); details: Table 4; read-out: Potency
Sequence (P10276 whole entry): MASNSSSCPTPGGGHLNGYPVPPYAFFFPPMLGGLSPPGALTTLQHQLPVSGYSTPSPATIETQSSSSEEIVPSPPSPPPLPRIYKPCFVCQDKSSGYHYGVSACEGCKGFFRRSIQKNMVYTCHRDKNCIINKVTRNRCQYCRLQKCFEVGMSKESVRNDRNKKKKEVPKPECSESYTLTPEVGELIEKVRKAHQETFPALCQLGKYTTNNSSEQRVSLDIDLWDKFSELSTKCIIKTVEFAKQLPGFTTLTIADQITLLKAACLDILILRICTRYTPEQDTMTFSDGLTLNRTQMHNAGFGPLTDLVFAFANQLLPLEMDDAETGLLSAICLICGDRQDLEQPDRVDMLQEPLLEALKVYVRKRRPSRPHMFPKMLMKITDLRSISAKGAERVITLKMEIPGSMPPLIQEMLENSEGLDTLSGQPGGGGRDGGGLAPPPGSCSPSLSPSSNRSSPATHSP
ASSAY_ENDPOINT: EC50

Q: For CC1=C(/C=C/C(=C\C=C\C(C)=C\C(=O)O)c2ccccc2)C(C)(C)CCC1 [9-phenyl-9-cis-retinoic acid] , what is its reported EC50?
Ans: > 10 µM

* * *

target: RAR-α (Homo sapiens, UniProt P10276); assay: Cotransfection assay in CV-1 cells, RAR-alpha; format: cell-based; parameters: expressed in transfected cells; host or cells: CV-1 (monkey kidney); conditions: Potency, Table 4
ASSAY_ENDPOINT: pEC50
Note: pEC50 values are expressed as the negative base-10 logarithm of concentration in M.

Q: Give the measured pEC50 of CC1=C(/C=C/C(C)=C\C=C\C(C)=C\C(=O)O)C(C)(C)CCC1O (stereo not drawn) [4-hydroxy-9-cis-retinoic acid] .
Ans: 6.42
